// provenance: ChEMBL document CHEMBL1201862

# Tested on: MDA-N
# experimental protocol: NCI tumour cell line growth inhibition, 48 h
Calls of active or inactive are those of the source. Cut-off read from the data, not from the text of the source: active = GI50 up to about 1.1 µM and inactive = higher.
Readings of GI50 for the listed molecules

Reference set, count: 6
molecule: CN(CC(=O)O)c1ncc2c(n1)-c1ccccc1OC2c1ccccc1 (stereo unspecified)
GI50: > 100 µM (inactive)
--
molecule: COc1cccc(CCCNC(=O)Cc2cc(OC)c(OC)cc2CO)c1
GI50: > 100 µM (inactive)
--
molecule: NS(=O)(=O)c1cc2c(cc1Cl)N=C(CCC(=O)O)NS2(=O)=O
GI50: > 100 µM (inactive)
--
molecule: CCNC1CC(C(C)(C)NCC)CC=C1C (stereo unspecified)
GI50: > 100 µM (inactive)
--
molecule: COc1ccc(-c2ncnc(-c3ccc(OC)c(OC)c3)n2)cc1OC
GI50: > 100 µM (inactive)
--
molecule: Cc1ccc2ccc(=O)oc2c1
GI50: > 100 µM (inactive)

[Q] What measured GI50 goes with Cn1c(=O)c2[nH]c(/N=N/N3CCN(CCO)CC3)nc2n(C)c1=O ?
[A] > 100 µM (inactive)

[Q] Next entry: COc1ccc(/C=C2\NC(=S)N(/C=C3\C(=O)Oc4ccccc4C3=O)C2=O)cc1OC
[A] > 100 µM (inactive)

[Q] Next entry: COc1cc2c(cc1OC)C(=O)N(NC1=NCCN1)C2=O
[A] > 100 µM (inactive)

[Q] Next entry: CN(C)CC1CCC/C(=C\c2ccc(OC(=O)c3ccc(Cl)cc3)cc2)C1=O (stereo unspecified)
[A] 2.38 µM (inactive)

[Q] Next entry: O=P(O)(O)CC1OC(CO)C(O)C1O (stereo unspecified)
[A] > 100 µM (inactive)

* * *

# Test system: HCT-116
# experimental protocol: NCI tumour cell line growth inhibition, 48 h
Calls of active or inactive are those of the source. Rule as the data show it: active = GI50 up to about 1.1 µM and inactive = higher.
metric name: GI50

compound: CSC1(SC)N2Cc3ccccc3N=C2C1(c1ccccc1)c1ccccc1
GI50: 6.18 µM (inactive)

We next turn to a different compound, shown below.
[Q] What measured GI50 goes with CNC(=O)NCNC(=O)NC ?
[A] > 100 µM (inactive)

* * *

# System: OVCAR-3
# experimental protocol: NCI tumour cell line growth inhibition, 48 h
The source made the active and inactive calls. No stated cut-off is given here; in the data, active = GI50 up to about 1.1 µM and inactive = higher.
Readings of GI50 for the listed compounds

Reference set, count: 5
compound: O=C(CCCN1CCC2(CC1)CC(=O)N(N1CCCCCC1)C2=O)c1ccc(F)cc1
metric name: GI50
result: > 100 µM (inactive)
//
compound: O=c1oc(-c2ccc(O)c(O)c2)cc2cccc(O)c12
metric name: GI50
result: 10.5 µM (inactive)
//
compound: CCCCCCCCOCC1S(=O)(=O)OCCOS1(=O)=O
metric name: GI50
result: > 100 µM (inactive)
//
compound: CC(C)(C)c1cc(/C=C2/NC(=O)NC2=O)cc(C(C)(C)C)c1O
metric name: GI50
result: 14.2 µM (inactive)
//
compound: Clc1ccc(OC2CCO2)cc1Cl (stereo unspecified)
metric name: GI50
result: 57.8 µM (inactive)

[Q] What measured GI50 goes with Cc1ccc2ccc(=O)oc2c1 ?
[A] > 100 µM (inactive)

* * *

# System: SK-MEL-2
# experimental protocol: NCI tumour cell line growth inhibition, 48 h
Activity calls are given as the source filed them. No stated cut-off is given here; in the data, active = GI50 up to about 1.1 µM and inactive = higher.
metric name: GI50

Reference set, count: 8
compound: O=Cc1cc(O)ccc1Br
GI50: 44.4 µM (inactive)
//
compound: O=C(N/C(=C\c1ccc(Oc2ccc(Cl)c(Cl)c2)cc1)c1nc2ccccc2[nH]1)c1ccccc1
GI50: 19.2 µM (inactive)
//
compound: CCN(CC)CCn1c2ccccc2c(=O)c2c(OC)ccc(OC)c21
GI50: > 100 µM (inactive)
//
compound: N=C(N)NCC(N)C(=O)O (stereo not drawn)
GI50: > 100 µM (inactive)
//
compound: COc1nc(C(Cl)(Cl)Cl)c(Cl)c(OC)c1Cl
GI50: 35.1 µM (inactive)
//
compound: COc1ccc(-c2ncnc(-c3ccc(OC)c(OC)c3)n2)cc1OC
GI50: > 100 µM (inactive)
//
compound: CCN1CC2=C(OC(N)=C(C#N)C2c2ccc(Cl)cc2)/C(=C/c2ccc(Cl)cc2)C1 (stereo not drawn)
GI50: 27.6 µM (inactive)
//
compound: CC(=O)c1ccc2c(c1)CC1(C2)Cc2cc3c(cc2C1=O)CCC3 (stereo not drawn)
GI50: 21.7 µM (inactive)

[Q] What measured GI50 goes with COc1c(CC(C)O)c2c3c(CC(C)O)c(OC)c(=O)c4c(O)cc5c(c6c(cc(O)c(c1=O)c62)OCO5)c43 (stereo not drawn) ?
[A] 1.55 µM (inactive)

[Q] Next entry: O=C1Oc2ccccc2C(=O)/C1=C\NC(=S)c1ccncc1
[A] 42.3 µM (inactive)

[Q] Next entry: N#CNC(=N)Nc1ccc(Cl)cc1
[A] > 100 µM (inactive)

* * *

# System: HCT-116
# experimental protocol: NCI tumour cell line growth inhibition, 48 h
Activity calls are given as the source filed them. Cut-off read from the data, not from the text of the source: active = GI50 up to about 1.1 µM and inactive = higher.
metric name: GI50

compound: Oc1cccc(-c2nc3ccccc3s2)c1
target or test system: HCT-116
GI50: 33 µM (inactive)

compound: NCCCC(N/C=C1/N=C(c2ccccc2)OC1=O)C(=O)O (stereo unspecified)
target or test system: HCT-116
GI50: 40.3 µM (inactive)

compound: O=C1O[C@H]2C3C4CCC(C4[C@@H]2I)[C@H]13 (stereo partly specified)
target or test system: HCT-116
GI50: > 100 µM (inactive)

compound: CCCCCCCCOCC1S(=O)(=O)OCCOS1(=O)=O
target or test system: HCT-116
GI50: > 100 µM (inactive)

compound: O=C1OC(=O)c2c1c(-c1ccccc1)cn2-c1ccc(Cl)cc1
target or test system: HCT-116
GI50: > 100 µM (inactive)

[Q] Requested read-out GI50, target or system HCT-116, entry COc1ccc(/C=C/c2cnc3ccccc3n2)cc1OC
[A] 47.2 µM (inactive)

[Q] Next entry: FC(F)(F)c1ccc2c(c1)nc1n2C(c2c(Cl)cccc2Cl)SC1 (stereo unspecified)
[A] 15.1 µM (inactive)

[Q] Next entry: Cc1ccc(S(=O)(=O)N/N=C2/C3C(CC2(C)C)C2(C)CCCC3(C)C2O)cc1 (stereo unspecified)
[A] 18.7 µM (inactive)

[Q] Next entry: Cc1ccc(/C=C(\NC(=O)c2ccccc2)c2nc3ccccc3[nH]2)cc1
[A] 37.2 µM (inactive)

[Q] Next entry: CC(C)(C)OC(=O)N1CCC2(CC1)C(=O)NCN2c1ccccc1
[A] > 100 µM (inactive)

[Q] Next entry: N#Cc1c(N2CCN(c3ccc([N+](=O)[O-])cc3)CC2)[n+]([O-])c2ccc(-c3ccc([N+](=O)[O-])cc3)cc2[n+]1[O-]
[A] 4.56 µM (inactive)

[Q] Next entry: O=C(c1nc2ccc([N+](=O)[O-])cc2nc1O)C(O)c1ccc2c(c1)OCO2 (stereo unspecified)
[A] 52.7 µM (inactive)

[Q] Next entry: O=C(CCC(NC(=O)OCc1ccccc1)C(=O)OCc1ccccc1)Nc1cccc(OCc2ccccc2)c1 (stereo unspecified)
[A] 19.2 µM (inactive)

[Q] Next entry: CCOc1cc(C2SCC(=O)N2c2ccc3c(c2)Oc2c(Cl)c4c(c(Cl)c2=N3)Oc2cc(N3C(=O)CSC3c3ccc(O)c(OCC)c3)ccc2N=4)ccc1O (stereo unspecified)
[A] 18 µM (inactive)

[Q] Next entry: Cc1cc(/N=C/c2c(CO)cnc(C)c2O)c(/N=C/c2c(CO)cnc(C)c2O)cc1C.[Zn+2]
[A] > 100 µM (inactive)

* * *

# System: SNB-75
# experimental protocol: NCI tumour cell line growth inhibition, 48 h
Activity calls are given as the source filed them. Cut-off read from the data, not from the text of the source: active = GI50 up to about 1.1 µM and inactive = higher.
metric name: GI50

Reference set, count: 4
molecule: CC(=O)c1[nH]c(Nc2ccc(C)cc2)c(C(=S)Nc2ccccc2)c1N
target or test system: SNB-75
GI50: 19.9 µM (inactive)
--
molecule: O=C1c2ccccc2C2(c3ccc(Cl)cc3)N[C@H]3CCCC[C@@H]3N12 (stereo not given in full)
target or test system: SNB-75
GI50: > 100 µM (inactive)
--
molecule: CN(C)/C=C/c1ccnc2c1C(=O)c1ccccc1C2=O
target or test system: SNB-75
GI50: 5.33 µM (inactive)
--
molecule: CC1(C)O/C(=C\c2ccccc2)C(=O)/C(=C/c2ccccc2)O1
target or test system: SNB-75
GI50: 31.6 µM (inactive)

We next turn to a different molecule, shown below.
[Q] What measured GI50 goes with O=C1c2ccccc2C(=O)c2c(NC3CCCCC3)ccc(Nc3ccc(S(=O)(=O)O)cc3)c21 ?
[A] > 100 µM (inactive)

* * *

Readings of GI50 for the listed compounds
# Test system: HL-60
# experimental protocol: NCI tumour cell line growth inhibition, 48 h
Activity calls are given as the source filed them. Rule as the data show it: active = GI50 up to about 1.1 µM and inactive = higher.

[Q] What measured GI50 goes with CN(C)N1C(=O)C(=O)N(c2cccc3ccccc23)C1=O ?
[A] > 10 µM (inactive)

[Q] Next entry: CC1CC2(OC2C)C(=O)OC2CCN(C)C/C=C(/COC(=O)C1(C)O)C2=O (stereo unspecified)
[A] > 100 µM (inactive)

[Q] Next entry: COc1ccc(/N=N/C(=O)NC(CC(C)C)C(N)=O)cc1 (stereo unspecified)
[A] > 100 µM (inactive)

[Q] Next entry: Cc1ccc(O)c(C(c2ccc([N+](=O)[O-])cc2)c2cc(C)ccc2O)c1
[A] 1.47 µM (inactive)

[Q] Next entry: CCNC(=S)N/N=C/c1ccccn1
[A] 3.74 µM (inactive)

[Q] Next entry: Oc1cccc(-c2nc3ccccc3s2)c1
[A] 47.8 µM (inactive)
